# Assay details: Cytotoxicity against HCV infected human Huh5-2 cells assessed as microscopically detectable alteration in cell morphology after 3 days
# Format: cell-based, Huh-5-2
# Protocol conditions: HCV infected Huh5-2 cells
Consider the following compounds; for each one, report its log10 of CC50 at 72 h.
Transform log10 | Measure CC50 at 72 h | Unit µM

**Q:** Could you tell me which log10 of CC50 at 72 h is on file for O=c1oc2ccccc2cc1CSc1nc2ccccc2o1 ?
**A:** 1.65

**Q:** Could you tell me which log10 of CC50 at 72 h is on file for COc1cccc2cc(CSc3nc4ccccc4n3[C@H]3C[C@@H](OC(C)=O)[C@H](OC(C)=O)[C@@H](COC(C)=O)O3)c(=O)oc12 ?
**A:** 1.41

**Q:** Could you tell me which log10 of CC50 at 72 h is on file for O=c1oc2ccccc2cc1CSc1nc2ccccc2s1 ?
**A:** 2.18

**Q:** Could you tell me which log10 of CC50 at 72 h is on file for COc1cccc2cc(CSc3nc4cncnc4[nH]3)c(=O)oc12 ?
**A:** 1.97

**Q:** Could you tell me which log10 of CC50 at 72 h is on file for Fc1ccc2[nH]c(SCc3ccncc3)nc2c1 ?
**A:** 2.29

**Q:** Could you tell me which log10 of CC50 at 72 h is on file for CC(=O)OC[C@H]1O[C@@H](n2c(SCc3cc4cc(Br)ccc4oc3=O)nc3ccccc32)C[C@@H](OC(C)=O)[C@@H]1OC(C)=O ?
**A:** 1.20

**Q:** Could you tell me which log10 of CC50 at 72 h is on file for O=c1oc2ccccc2cc1CSc1nc2ccccc2[nH]1 ?
**A:** 1.95

**Q:** Could you tell me which log10 of CC50 at 72 h is on file for c1ccc2cc(CSc3nc4ccccc4[nH]3)ccc2c1 ?
**A:** 1.75

**Q:** Could you tell me which log10 of CC50 at 72 h is on file for COc1cccc2cc(CSc3nc4cccnc4[nH]3)c(=O)oc12 ?
**A:** 1.48

**Q:** Could you tell me which log10 of CC50 at 72 h is on file for COc1cccc2cc(CSc3nc4ccccc4s3)c(=O)oc12 ?
**A:** 1.60

====

# Assay details: Selectivity index, ratio of CC50 for human Huh 5-2 cells to EC50 for HCV
Reported metric: Ratio CC50/EC50
Format: numeric value only, no unit, no commentary.

**Q:** Could you tell me which Ratio CC50/EC50 is on file for Fc1ccc2[nH]c(SCc3ccccc3)nc2c1 ?
**A:** 1

**Q:** Could you tell me which Ratio CC50/EC50 is on file for COc1cccc2cc(CSc3nc4ccccc4n3[C@H]3C[C@@H](OC(C)=O)[C@H](OC(C)=O)[C@@H](COC(C)=O)O3)c(=O)oc12 ?
**A:** 2.2

**Q:** Could you tell me which Ratio CC50/EC50 is on file for COc1cccc2cc(CSc3nc4cccnc4[nH]3)c(=O)oc12 ?
**A:** 2.8

**Q:** Could you tell me which Ratio CC50/EC50 is on file for Clc1cc2nc(SCc3ccncc3)[nH]c2cc1Cl ?
**A:** 1.1

====

# Assay details: Cytotoxicity against HCV infected human Huh5-2 cells assessed as microscopically detectable alteration in cell morphology after 3 days
# Type: cell-based, Huh-5-2
# Protocol conditions: HCV infected Huh5-2 cells
Consider the following molecules; for each one, report its CC50 at 72 h.
Put your answer as a value accompanied by its unit after it.

**Q:** Could you tell me which CC50 at 72 h is on file for CC(=O)OC[C@H]1O[C@@H](n2c(=S)[nH]c3ccccc32)[C@H](OC(C)=O)[C@@H](OC(C)=O)[C@@H]1OC(C)=O ?
**A:** 104 µM

**Q:** Could you tell me which CC50 at 72 h is on file for CC(=O)OC[C@H]1O[C@@H](n2c(SCc3cc4cc(Br)ccc4oc3=O)nc3cc(Cl)c(Cl)cc32)C[C@@H](OC(C)=O)[C@@H]1OC(C)=O ?
**A:** 11 µM

**Q:** Could you tell me which CC50 at 72 h is on file for O=c1oc2ccc(Br)cc2cc1CSc1nc2ccccc2o1 ?
**A:** 131 µM

**Q:** Could you tell me which CC50 at 72 h is on file for Fc1ccc2[nH]c(SCc3ccccc3)nc2c1 ?
**A:** 197 µM
